tested on: BALB/c mice; assay: Transfection efficiency: in vivo bioluminescence of luciferase mRNA encapsulated by different LNP; settings: 10 μg/mice, 6 h after administration
attribute-measured: Average fluorescence intensity, Liver (tail vein injection)
Keep the answer to the number alone.

compound: CCCCCCCCCCCCCCCCN(CCO)CCCCCC(=O)OCCCCCCCCCCC
result: 27.80

Any idea what Average fluorescence intensity, Liver (tail vein injection) was measured for CCCCCCCCC(CCCCCCCC)OC(=O)CCCCCCCN(CCCO)CCCCCCCC(=O)OC(CCCCCCCC)CCCCCCCC ? 3738.2

Any idea what Average fluorescence intensity, Liver (tail vein injection) was measured for CCCCCCCCC(CCCCCCCC)OC(=O)CCCCCCCN(CCO)CCCCCCCC(=O)OC(CCCCCCCC)CCCCCCCC [A2, reference compound] ? 5934.7

Any idea what Average fluorescence intensity, Liver (tail vein injection) was measured for CCCCC/C=C/C/C=C/CCCCCCCCN(CCO)CCCCCC(=O)OCCCCCCCCCCC ? 252.7
